species: Rattus norvegicus; test: Open TG-GATES - Regimen: Single; format: toxicity, organism-based, Sprague-Dawley; design: regimen Single, gender Male, age 6 weeks; conditions: in vivo, po, 0 mg/kg, 9 h, tissue Plasma, route gavage, dose level Control
Record form. Attribute: Cl. Fill in for each entry.
Provide a numeric answer, followed by its unit.

Exam item: Would you mind telling me what Cl value was observed for COc1cc2c(c(OC)c1OC)-c1ccc(OC)c(=O)cc1[C@@H](NC(C)=O)CC2 ?
Marked response: 105.2 meq/L

Exam item: Would you mind telling me what Cl value was observed for CCCNC(=O)NS(=O)(=O)c1ccc(Cl)cc1 [CHLORPROPAMIDE] ?
Marked response: 106.8 meq/L

Exam item: Would you mind telling me what Cl value was observed for CCOC(=O)CCC(=O)O[C@H]1[C@H](O[C@@H]2[C@@H](C)[C@H](O[C@H]3C[C@@](C)(OC)[C@@H](O)[C@H](C)O3)[C@@H](C)C(=O)O[C@H](CC)[C@@](C)(O)[C@H](O)[C@@H](C)C(=O)[C@H](C)C[C@@]2(C)O)O[C@H](C)C[C@@H]1N(C)C [ERYTHROMYCIN ETHYLSUCCINATE] ?
Marked response: 103.6 meq/L

Values from ChEMBL document CHEMBL3885861
